These entries and their values trace back to ChEMBL document CHEMBL3991601.

The following compounds have recorded Kd on Interleukin-1 receptor-associated kinase 3 (Homo sapiens).
Sequence (Q9Y616 whole entry): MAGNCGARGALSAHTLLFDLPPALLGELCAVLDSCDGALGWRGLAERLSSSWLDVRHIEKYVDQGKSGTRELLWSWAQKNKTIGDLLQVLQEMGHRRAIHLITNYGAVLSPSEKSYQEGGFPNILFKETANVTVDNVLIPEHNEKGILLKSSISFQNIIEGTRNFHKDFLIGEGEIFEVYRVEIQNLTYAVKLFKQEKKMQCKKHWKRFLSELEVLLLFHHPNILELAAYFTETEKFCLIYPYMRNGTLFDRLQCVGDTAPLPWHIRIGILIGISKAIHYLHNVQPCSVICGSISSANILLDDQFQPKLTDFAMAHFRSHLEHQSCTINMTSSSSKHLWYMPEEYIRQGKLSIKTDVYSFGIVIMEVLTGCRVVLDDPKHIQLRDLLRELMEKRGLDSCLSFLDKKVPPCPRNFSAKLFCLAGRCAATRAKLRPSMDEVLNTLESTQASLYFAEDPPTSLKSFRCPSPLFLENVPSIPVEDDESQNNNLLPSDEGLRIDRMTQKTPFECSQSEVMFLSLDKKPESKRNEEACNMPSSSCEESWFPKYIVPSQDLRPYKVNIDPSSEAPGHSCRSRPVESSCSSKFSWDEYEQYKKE
Activity calls are given as the source filed them.

{"compound": "CNC(=O)c1nn(C)c2c1C(C)(C)Cc1cnc(Nc3ccc(N4CCN(C)CC4)cc3)nc1-2", "observed.measurement": "0.291 µM (active)"}
{"compound": "CC(=O)c1cnc2ccc(-c3cc(Cl)c(O)c(Cl)c3)nc2c1N[C@H]1CC[C@H](CN(C)C)CC1", "observed.measurement": "0.012 µM (active)"}

Report the value of Kd obtained on Interleukin-1 receptor-associated kinase 3 (Homo sapiens) for `CCS(=O)(=O)c1cccc(-c2cc(C(=O)NC3CCN(C)CC3)c(C)c3[nH]c4ncc(C)cc4c23)c1` .
0.027 µM (active)

Report the value of Kd obtained on Interleukin-1 receptor-associated kinase 3 (Homo sapiens) for `CCNC(=O)C#Cc1ccc2c(c1)NC(=O)/C2=C(\Nc1ccc(CN(C)C)cc1)c1ccccc1` .
> 30 µM (inactive)

Report the value of Kd obtained on Interleukin-1 receptor-associated kinase 3 (Homo sapiens) for `Cc1cc(Nc2ncc(Cl)c(Nc3ccccc3S(=O)(=O)C(C)C)n2)c(OC(C)C)cc1C1CCNCC1` .
> 30 µM (inactive)

Report the value of Kd obtained on Interleukin-1 receptor-associated kinase 3 (Homo sapiens) for `CCn1c(C(=O)N(C2CC2)C2CC2)cc2c3c(ncn3C)c(Nc3cc(C)n(C)n3)nc21` .
> 30 µM (inactive)

Report the value of Kd obtained on Interleukin-1 receptor-associated kinase 3 (Homo sapiens) for `N#CC1(c2ccc(NC(=O)c3cccnc3NCc3ccncc3)cc2)CCCC1` .
> 30 µM (inactive)

Report the value of Kd obtained on Interleukin-1 receptor-associated kinase 3 (Homo sapiens) for `NC1(c2ccc(-c3nc4ccn5c(=O)[nH]nc5c4cc3-c3ccccc3)cc2)CCC1` .
> 30 µM (inactive)

Report the value of Kd obtained on Interleukin-1 receptor-associated kinase 3 (Homo sapiens) for `COc1cc([C@@H]2c3cc4c(cc3[C@H](O)[C@H]3COC(=O)[C@@H]23)OCO4)cc(OC)c1OC` .
> 30 µM (inactive)

Report the value of Kd obtained on Interleukin-1 receptor-associated kinase 3 (Homo sapiens) for `FC(F)(F)c1ccc(/C=C/c2nc(COc3ccc(CCCCn4ccnn4)cc3)co2)cc1` .
> 30 µM (inactive)

Report the value of Kd obtained on Interleukin-1 receptor-associated kinase 3 (Homo sapiens) for `CO[C@H]1C[C@@H]2CC[C@@H](C)[C@@](O)(O2)C(=O)C(=O)N2CCCC[C@H]2C(=O)O[C@H]([C@H](C)C[C@@H]2CC[C@@H](OC(=O)C(C)(CO)CO)[C@H](OC)C2)CC(=O)[C@H](C)/C=C(\C)[C@@H](O)[C@@H](OC)C(=O)[C@H](C)C[C@H](C)/C=C/C=C/C=C/1C` .
> 30 µM (inactive)

----------
Known Kd of a selection of compounds
- system: UniProt:P49760
- Sequence (P49760 whole entry): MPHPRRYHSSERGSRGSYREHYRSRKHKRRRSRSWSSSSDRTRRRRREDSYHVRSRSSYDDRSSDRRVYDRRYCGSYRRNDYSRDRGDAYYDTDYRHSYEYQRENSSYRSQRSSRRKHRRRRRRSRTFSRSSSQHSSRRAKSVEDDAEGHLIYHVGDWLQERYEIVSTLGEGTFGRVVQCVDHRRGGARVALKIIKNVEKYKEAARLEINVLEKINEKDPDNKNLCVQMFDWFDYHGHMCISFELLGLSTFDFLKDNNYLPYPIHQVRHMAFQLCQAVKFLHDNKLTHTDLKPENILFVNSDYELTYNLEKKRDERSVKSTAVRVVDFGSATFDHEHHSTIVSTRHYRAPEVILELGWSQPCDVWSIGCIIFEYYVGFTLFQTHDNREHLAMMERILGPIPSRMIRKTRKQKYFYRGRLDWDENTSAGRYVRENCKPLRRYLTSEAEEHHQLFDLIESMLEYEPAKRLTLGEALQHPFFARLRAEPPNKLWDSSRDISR
The source made the active and inactive calls.

{"sample.smiles": "CO[C@H]1C[C@@H]2CC[C@@H](C)[C@@](O)(O2)C(=O)C(=O)N2CCCC[C@H]2C(=O)O[C@H]([C@H](C)C[C@@H]2CC[C@@H](OC(=O)C(C)(CO)CO)[C@H](OC)C2)CC(=O)[C@H](C)/C=C(\\C)[C@@H](O)[C@@H](OC)C(=O)[C@H](C)C[C@H](C)/C=C/C=C/C=C/1C", "readout.label": "Kd", "observed.measurement": "> 30 µM (inactive)"}
{"sample.smiles": "Cc1cc(Nc2ncc(Cl)c(Nc3ccccc3S(=O)(=O)C(C)C)n2)c(OC(C)C)cc1C1CCNCC1", "readout.label": "Kd", "observed.measurement": "> 30 µM (inactive)"}

Report the value of Kd obtained on UniProt:P49760 for `COc1ncc(-c2ccc3nccc(-c4ccnnc4)c3c2)cc1NS(=O)(=O)c1ccc(F)cc1F` .
> 30 µM (inactive)
